target under test: HSA (human serum albumin) (Homo sapiens, UniProt P02768)
Sequence (P02768 25-609): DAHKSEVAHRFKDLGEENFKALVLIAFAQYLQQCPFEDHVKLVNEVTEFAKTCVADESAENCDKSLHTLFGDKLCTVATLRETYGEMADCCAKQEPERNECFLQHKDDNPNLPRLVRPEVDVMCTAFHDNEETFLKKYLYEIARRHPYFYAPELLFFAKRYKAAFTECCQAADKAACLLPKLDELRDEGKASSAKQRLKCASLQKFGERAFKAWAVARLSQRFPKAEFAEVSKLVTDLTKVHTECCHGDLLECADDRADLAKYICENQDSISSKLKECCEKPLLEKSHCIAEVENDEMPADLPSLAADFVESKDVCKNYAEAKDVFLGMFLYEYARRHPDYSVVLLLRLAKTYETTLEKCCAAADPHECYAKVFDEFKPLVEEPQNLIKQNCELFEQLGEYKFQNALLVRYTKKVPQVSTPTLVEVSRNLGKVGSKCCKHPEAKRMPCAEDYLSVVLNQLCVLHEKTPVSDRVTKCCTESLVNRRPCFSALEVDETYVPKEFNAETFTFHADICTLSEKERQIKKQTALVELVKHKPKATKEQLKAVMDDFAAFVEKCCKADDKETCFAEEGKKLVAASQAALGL
procedure details: Binding of different pharmaceutically active compounds to albumin, RED assay
Type: in vitro ADME
test settings: isolated protein, 5 h, pH 7.4
Counter-ions that a name gives are not always drawn.
quantity: % bound
State the value with its unit after it.

query: % bound for C[C@@H]1CN([C@H]2CC[C@](C#N)(c3ccc(F)cc3)CC2)CC[C@]1(C(=O)O)c1ccccc1 [Levocabastine HCl] ?
result: 75.4%

query: Request: CN1CCCC(n2nc(Cc3ccc(Cl)cc3)c3ccccc3c2=O)CC1 (stereo not shown) [Azelastine HCl]
result: 80.9%

query: Request: NC(=O)Cc1cccc(C(=O)c2ccccc2)c1N [Nepafenac]
result: 92.1%

query: Request: CNCC(O)c1ccc(OC(=O)C(C)(C)C)c(OC(=O)C(C)(C)C)c1 (stereo not shown) [Dipivefrin HCl]
result: 64.8%
